- assay.details: self-splicing fitness, log relative to wild type (ln ratio); higher = more splicing; Tetrahymena group I intron in knt gene, E. coli kanamycin selection, DiMSum; sequences stand for … in CUCUCU…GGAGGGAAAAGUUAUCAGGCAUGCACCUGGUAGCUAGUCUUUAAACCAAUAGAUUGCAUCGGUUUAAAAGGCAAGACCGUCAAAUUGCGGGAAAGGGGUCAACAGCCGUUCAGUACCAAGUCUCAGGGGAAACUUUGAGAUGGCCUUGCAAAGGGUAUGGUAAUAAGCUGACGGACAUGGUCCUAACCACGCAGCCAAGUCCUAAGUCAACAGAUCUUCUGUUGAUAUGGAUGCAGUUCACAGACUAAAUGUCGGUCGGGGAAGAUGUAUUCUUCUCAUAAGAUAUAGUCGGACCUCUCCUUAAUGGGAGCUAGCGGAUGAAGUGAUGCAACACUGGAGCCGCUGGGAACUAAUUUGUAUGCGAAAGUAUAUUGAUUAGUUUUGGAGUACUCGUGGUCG;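 further: selection with 25 µg/mL kanamycin versus none on LB agar overnight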
- reported.conditions: 30 °C
Measured self-splicing fitness (ln) values are reported for all entries that follow.
Form field (numeric): enter value without unit.

Known self-splicing fitness (ln) results, listed for orientation:
record.sequence: CCCAAGCAAUAUUACGGGUA
test.value: -4.37

record.sequence: GCUAAGCAAUAUUACGAUUA
test.value: -1.63

record.sequence: AAUCAGCAAUAUUACGCACU
test.value: -0.299

record.sequence: UUUUAGCAAUAUUACGACCG
test.value: 1.81

record.sequence: GCCCAGCAAUAUUACGGAAG
test.value: -2.76

record.sequence: AGCAAGCAAUAUUACGCAAG
test.value: -2.4

record.sequence: CGGUAGCAAUAUUACGGUAU
test.value: -3.77

record.sequence: CUAGAGCAAUAUUACGGCCG
test.value: -0.252

Data request, read-out self-splicing fitness (ln), for UUCCAGCAAUAUUACGGCGU
-1.42

Recorded self-splicing fitness (ln) for AAGCAGCAAUAUUACGUAGC , please?
-3.19

What self-splicing fitness (ln) value was documented for this sequence, GAUCAGCAAUAUUACGCCUA ?
0.00222

* * *

Parameter: self-splicing fitness (ln). Scope: all listed entries.
- assay.details: self-splicing fitness, log relative to wild type (ln ratio); higher = more splicing; Tetrahymena group I intron in knt gene, E. coli kanamycin selection, DiMSum; sequences stand for … in CUCUCU…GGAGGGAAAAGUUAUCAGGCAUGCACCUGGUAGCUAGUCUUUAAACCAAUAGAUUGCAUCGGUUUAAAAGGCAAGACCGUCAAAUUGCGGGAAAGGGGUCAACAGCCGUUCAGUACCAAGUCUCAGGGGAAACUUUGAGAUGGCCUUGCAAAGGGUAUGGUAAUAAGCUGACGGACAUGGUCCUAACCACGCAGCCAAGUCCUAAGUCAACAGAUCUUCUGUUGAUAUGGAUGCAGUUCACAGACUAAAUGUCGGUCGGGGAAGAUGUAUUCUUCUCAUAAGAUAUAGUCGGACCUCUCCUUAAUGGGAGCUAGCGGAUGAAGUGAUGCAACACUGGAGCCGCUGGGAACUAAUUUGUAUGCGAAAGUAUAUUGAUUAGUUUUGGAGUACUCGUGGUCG
- reported.conditions: 30 °C
Could you keep your reply to the number by itself?

record.sequence: CGAGAGCAAUAUUACGAGCU
self-splicing fitness (ln): -4.6

State the recorded self-splicing fitness (ln) for this entry: CAACAGCAAUAUUACGUUCA
-1.06

Quick one: self-splicing fitness (ln) of GGCGAGCAAUAUUACGGGUU ?
-2.52

Form field: reported self-splicing fitness (ln) of UUAAAGCAAUAUUACGCCGG
-0.245

Look up self-splicing fitness (ln): GCUUAGCAAUAUUACGGUGG
-2.24

Fill in the blank: the reported self-splicing fitness (ln) of CACCAGCAAUAUUACGAUAA is ____.
-4.88

Field request: self-splicing fitness (ln) | item: GUGAAGCAAUAUUACGUCAG
-0.462

Find the recorded self-splicing fitness (ln) belonging to GUAGAGCAAUAUUACGUUCG and report it.
-1.08

Suppose we examine the sequence ACCGAGCAAUAUUACGAAGC ; what self-splicing fitness (ln) value has been reported?
-3.47

* * *

- assay.details: self-splicing fitness, log relative to wild type (ln ratio); higher = more splicing; Tetrahymena group I intron in knt gene, E. coli kanamycin selection, DiMSum; sequences stand for … in CUCUCU…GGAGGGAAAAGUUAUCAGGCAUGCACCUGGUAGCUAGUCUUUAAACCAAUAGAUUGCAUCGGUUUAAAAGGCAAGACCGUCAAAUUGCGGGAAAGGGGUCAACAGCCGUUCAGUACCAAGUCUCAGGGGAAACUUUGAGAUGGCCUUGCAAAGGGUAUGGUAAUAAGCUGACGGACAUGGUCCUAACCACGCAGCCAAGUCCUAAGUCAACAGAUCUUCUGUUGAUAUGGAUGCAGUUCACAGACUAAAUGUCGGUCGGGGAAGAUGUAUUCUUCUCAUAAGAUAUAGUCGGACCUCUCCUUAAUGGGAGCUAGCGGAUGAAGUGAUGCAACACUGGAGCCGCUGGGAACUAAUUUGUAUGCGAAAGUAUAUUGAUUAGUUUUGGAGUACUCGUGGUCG
- reported.conditions: 37 °C
Kindly return MET if reported self-splicing fitness (ln) is no lower than -0.8; return NOT MET if it is lower.

Solved cases below.
record.sequence: UUACAGCAAUAUUACGGCGC
group.label: MET
--
record.sequence: CCCCAGCAAUAUUACGCCAG
group.label: NOT MET
--
record.sequence: CGCAAGCAAUAUUACGGAGA
group.label: NOT MET
--
record.sequence: GUCAAGCAAUAUUACGUGUU
group.label: NOT MET

Please tell me: is the sequence AAGGAGCAAUAUUACGUCUG at or over -0.8 in terms of self-splicing fitness (ln)?
MET

Form field: self-splicing fitness (ln) at least -0.8? Entry: GAAGAGCAAUAUUACGUCAG
NOT MET

Hi team, for UCAAAGCAAUAUUACGGUAA , is the recorded self-splicing fitness (ln) at or above -0.8?
MET

Hi team, for ACGCAGCAAUAUUACGCACC , is the recorded self-splicing fitness (ln) at or above -0.8?
MET

Check this sequence for self-splicing fitness (ln) at or above -0.8: AGACAGCAAUAUUACGGCGC
MET

Please indicate if the recorded self-splicing fitness (ln) for AAACAGCAAUAUUACGUCGG meets or exceeds -0.8.
NOT MET

Test whether the sequence GCGAAGCAAUAUUACGAUCA records self-splicing fitness (ln) of -0.8 or higher.
NOT MET

Determine whether measured self-splicing fitness (ln) meets or exceeds -0.8 for AGCCAGCAAUAUUACGUCAC
NOT MET

Given UCAAAGCAAUAUUACGGUGC , state whether its self-splicing fitness (ln) is at least -0.8.
NOT MET

Please check the record CUCAAGCAAUAUUACGUUAC and state if its self-splicing fitness (ln) is at or above -0.8.
NOT MET

Confirm if self-splicing fitness (ln) reported for the sequence CGUUAGCAAUAUUACGGUAG is -0.8 or above.
MET

* * *

- assay.details: self-splicing fitness, log relative to wild type (ln ratio); higher = more splicing; Tetrahymena group I intron in knt gene, E. coli kanamycin selection, DiMSum; sequences stand for … in CUCUCU…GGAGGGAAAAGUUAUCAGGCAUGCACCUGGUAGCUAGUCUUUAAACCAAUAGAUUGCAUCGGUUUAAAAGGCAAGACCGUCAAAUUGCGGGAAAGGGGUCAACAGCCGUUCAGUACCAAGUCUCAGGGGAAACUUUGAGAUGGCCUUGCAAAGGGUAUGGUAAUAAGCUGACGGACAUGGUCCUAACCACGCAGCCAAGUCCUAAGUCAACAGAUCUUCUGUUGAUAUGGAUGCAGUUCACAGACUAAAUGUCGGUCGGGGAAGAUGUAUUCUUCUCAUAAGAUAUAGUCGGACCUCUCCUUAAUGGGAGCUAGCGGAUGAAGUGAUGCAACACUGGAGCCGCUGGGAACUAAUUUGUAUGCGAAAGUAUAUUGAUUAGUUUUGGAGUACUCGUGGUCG
- reported.conditions: 37 °C
Classification field: enter y for self-splicing fitness (ln) values not below -1, n for values below it.

record.sequence: UAACAGCAAUAUUACGGACU
group.label: y
//
record.sequence: CCGCAGCAAUAUUACGACAU
group.label: n
//
record.sequence: CAACAGCAAUAUUACGCAUA
group.label: n
//
record.sequence: GGUGAGCAAUAUUACGAUUG
group.label: n

Hi, just wondering whether UCGCAGCAAUAUUACGCGAA shows self-splicing fitness (ln) of -1 or higher.
n

Could you tell me if the measured self-splicing fitness (ln) of AAGGAGCAAUAUUACGGCCA reaches -1 or more?
n

I'd appreciate it if you could say whether UGUGAGCAAUAUUACGGAAU has self-splicing fitness (ln) at least equal to -1.
n

I'd appreciate it if you could say whether AGGCAGCAAUAUUACGUUGG has self-splicing fitness (ln) at least equal to -1.
n

Entry UGUCAGCAAUAUUACGAAGU : is its self-splicing fitness (ln) no less than -1?
n

self-splicing fitness (ln) >= -1 for GUAAAGCAAUAUUACGGCGG ?
n
